# PROCEDURE_SUMMARY: protease stability score; higher = more stable; yeast display proteolysis, trypsin and chymotrypsin;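 further: relative to predicted unfolded state with 0 unfolded-like and 1 meaning tenfold more protease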
Criterion: protease stability score meeting or surpassing 1. Met: 1 (yes). Not met: 0 (no).

DDKEEHWHELNRIYFEWFRTGDEELIAKNADPNVRYHIDGREFHGREDFDKLMDHLSRKFKNARIEFDDMRWQGDKLHLRGTLRVGDKNIDTRIHIVIVNGQLHLIIHIRD: 1 (yes)
TEDVRHADEMIERVIESLTTGDEESYKRLLDPDVRVLIGDKRIHGMEAVLEWFRRIDHVQIHDVRVREVEIVNGRADVRMEFDLTHRINGVEHRFKFESEMLLVKIDGQWRLHSDKRI: 1 (yes)
DEDERLFEEATRLWSKLVLTGDEKRLEELMDPNVRVVIGDKVFHGREIAVKVVKELRVEHIIIRRWEIIGDKAHIRGESRGIVNGVERVSTLDLTLLKIDGRWIIESIRLE: 1 (yes)
DEDEKMAREFVELWVHLLSTGNEDLEKHLVDPHVRVDINGQEIHGRNHLITFLIQIKNLTFEFRHVRITVVGDKIQVHIHGIVQVNGQWREVMIDFEAEKINGRWLQKQFHVKIH: 1 (yes)
SEEEQLIRLALEWELHSEETGDEELVRENADPHVRLEINGVEVIGMELAVKILFELKEDMGIKHIELKSVDTQGDKLNIHSKYHVNGRHIDVIIISKKVNGRWRMKRIIVTIR: 1 (yes)
DEDEEMSKLLLEVSERVIETGDEHLWTRLLDPNVRIHLIIGDKTIELIGRERAHELLHHILERYKNATLRLRSVEIQGDKVIVESELNVGDKRIKQIYIWTKINGQWVLEEVNIEVR: 1 (yes)
SEEEQELYRTAKLMLESMTTGNEELNKRLADPNVRIHWNGVENHGWRIFRENLEELRIHLKDWRFRRFDLYNGVALLDIEVQIDIEIGDKRIEYETQTILLLFVVNGRIKSISMRIL: 1 (yes)
DEDEEIARKIMEMLIEELRTGDEEKSTENADPNVRVHFNGKDLHGWEEFSRLASKFKGLRFILRRMDVFNGRVVIDGEERWDGRTHRVILHIEKVNGRWRIKQVDIH: 1 (yes)

Ask: Identify whether the reported protease stability score of the following sequence is 1 or greater: DEEDMDEVEKAIRKNDPEKMRDLADENAKASVGDNQFHGRDNVENFMKHLTDHADHVQVDSVEKHNGRVVVNAQLDINGEQIQIVIRIDVHNGKIKRFSIEVRDEEAHHFMREMVS
Result: 0 (no)

Ask: Next entry: DDEERDVLRIMRIVLKLWKTGNEEKYEHLLDPDVRMEVDGRNLHGRETVSHWLHRLREEIRIDDYKIETVRAQGNKSILHVRTDGIINGQEVRLTEEITIIVINGRIQTFSIHRH
Result: 0 (no)

---

sequences and their reported protease stability score
# PROCEDURE_SUMMARY: protease stability score; higher = more stable; yeast display proteolysis, trypsin and chymotrypsin;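 further: relative to predicted unfolded state with 0 unfolded-like and 1 meaning tenfold more protease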

DEIEKESERVMEKYFEDFITGDWETMWRQVDPHVKFRIGDKHFHGREQATRVYKEFLDELGVKVRRIHDFEFTLFDGRAYVHLDSTLRVNGRDHRLHITIIVEKINGRWRLHEFELRLH: 0.367
SEIEKMFHIALKLWVRTMKTGDFEDLLRLLDPNWRLEVNGRTHHGREELEHEIRELGIDQFHLHHIEHKEFLVQGEKITIDGRINGEFNGVQYNTRVIIIAKKINGRWVLHSEEIK: 1.37
SEEERDVRHVFEVFERSMNTGDEKKIEDRLDPNVRIIIGDKRVHGMHWVSKVIVEMRTHFILRRIRIIGDKADIDGELELRAEGHHIHTHVIIVVHKINGRWYIEEIEIR: 1.69
SEDEKIAHKVHRLMFESLRTGDEEFLRRMLDPNARFVVNGQDLVGMEFLDHTLREMRVREIRWRSSDVEIQGDKIINHSKVHSRFDQGEKETHVEVHIIIIYTKIDGQWHVKSVIIEYK: 1.12

Please find the next sequence below.
Ask: Name the reported protease stability score value associated with the sequence DEERKWTKEALDKLLRVIATGDEDFINQNADPRVRLEINGVEIHGRELWHKILKDHSERMGVKHTHLESHDEFNGVITIHMRLFVGDKETRIEIINLKVDGKWIIKSLRIE
Result: 1.22
